Test system: SKM-1
RUN_DESCRIPTION: MTS viability assay, 72 h
CONDITION_DETAILS: read-out: LC50; SKM-1, 72 h; 50% death relative to T0
QUANTITY: CC50

Fill in reported CC50 for this entry: N[C@@H]1CCCN(c2c(/C=C3\SC(=O)NC3=O)cccc2-c2ccccc2)C1 [AZD1208]
> 10 µM

###

QUANTITY: Kd (nM)
Give the value in nM but do not write nM after it.

Provide Kd, recorded with PIM2 (Homo sapiens), of CC(C)n1c(C2CCNCC2)nc2c([N+](=O)[O-])c(Br)c(Br)cc21
Sequence (Q9P1W9 whole entry): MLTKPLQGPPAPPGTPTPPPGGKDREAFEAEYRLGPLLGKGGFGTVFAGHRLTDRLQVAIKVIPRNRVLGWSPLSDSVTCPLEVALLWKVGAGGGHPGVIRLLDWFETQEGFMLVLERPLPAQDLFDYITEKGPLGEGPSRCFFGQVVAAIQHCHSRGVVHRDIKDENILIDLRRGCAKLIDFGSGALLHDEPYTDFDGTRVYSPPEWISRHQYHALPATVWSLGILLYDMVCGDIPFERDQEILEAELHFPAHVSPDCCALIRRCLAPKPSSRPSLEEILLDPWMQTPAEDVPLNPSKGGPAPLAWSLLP
2

###

TARGET_SYSTEM: FLT3 (D835H) (Homo sapiens, UniProt P36888, D835H)
Sequence (P36888 27-993 D835H): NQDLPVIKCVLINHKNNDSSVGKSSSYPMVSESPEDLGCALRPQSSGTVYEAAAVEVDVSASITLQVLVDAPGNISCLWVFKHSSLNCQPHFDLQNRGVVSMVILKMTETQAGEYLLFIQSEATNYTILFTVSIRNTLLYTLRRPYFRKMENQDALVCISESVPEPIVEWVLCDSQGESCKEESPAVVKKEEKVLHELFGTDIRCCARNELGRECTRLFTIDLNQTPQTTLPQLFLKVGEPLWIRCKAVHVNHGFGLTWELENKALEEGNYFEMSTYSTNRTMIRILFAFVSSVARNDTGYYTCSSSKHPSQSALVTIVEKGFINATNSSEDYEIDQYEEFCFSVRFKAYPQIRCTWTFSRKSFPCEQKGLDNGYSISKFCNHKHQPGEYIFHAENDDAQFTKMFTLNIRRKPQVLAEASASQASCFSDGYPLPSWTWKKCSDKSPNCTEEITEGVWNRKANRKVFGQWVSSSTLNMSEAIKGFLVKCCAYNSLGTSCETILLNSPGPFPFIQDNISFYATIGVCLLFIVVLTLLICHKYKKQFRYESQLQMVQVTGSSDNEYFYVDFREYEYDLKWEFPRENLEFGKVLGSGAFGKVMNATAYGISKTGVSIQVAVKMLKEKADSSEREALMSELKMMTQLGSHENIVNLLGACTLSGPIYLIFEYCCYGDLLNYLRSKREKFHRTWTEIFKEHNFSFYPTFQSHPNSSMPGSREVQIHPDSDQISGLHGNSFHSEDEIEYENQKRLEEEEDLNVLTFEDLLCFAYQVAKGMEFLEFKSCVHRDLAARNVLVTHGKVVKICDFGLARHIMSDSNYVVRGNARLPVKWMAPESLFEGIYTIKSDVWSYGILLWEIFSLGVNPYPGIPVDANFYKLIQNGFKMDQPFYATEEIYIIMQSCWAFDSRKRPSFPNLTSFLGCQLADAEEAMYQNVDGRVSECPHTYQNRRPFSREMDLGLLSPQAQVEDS
RUN_DESCRIPTION: KINOMEscan Kd, specific screen against FLT3 mutants
QUANTITY: Kd (nM)
Number only, in nM; omit the unit.

Quickly give me recorded Kd for CC(C)n1c(C2CCNCC2)nc2c([N+](=O)[O-])c(Br)c(Br)cc21 [SEL24-B489]
37

###

RUN_DESCRIPTION: Blood biochemistry in mice with MV-4-11 tumors
Type: in vivo
CONDITION_DETAILS: SEL24-B489 50 mg/kg, treatment day 15
Protocol: All animals were handled in strict accordance with good animal practice as defined by the relevant national and local animal welfare bodies. […] Tumor volume was monitored every second day and calculated using the formula: TV = (a^2×b)/2, where “a” is the short axis in millimeters, and “b” is the long axis in millimeters. Body weight was assessed every day. […]
QUANTITY: Na (mM)
Form entry: value (mM) — number only.

Please supply the value of reported Na for the item CC(C)n1c(C2CCNCC2)nc2c([N+](=O)[O-])c(Br)c(Br)cc21
141

###

TARGET_SYSTEM: CYP2B6 (Homo sapiens, UniProt P20813)
Construct: Cambridge Bioscience Limited (ran the assay)
Sequence (P20813 1-491): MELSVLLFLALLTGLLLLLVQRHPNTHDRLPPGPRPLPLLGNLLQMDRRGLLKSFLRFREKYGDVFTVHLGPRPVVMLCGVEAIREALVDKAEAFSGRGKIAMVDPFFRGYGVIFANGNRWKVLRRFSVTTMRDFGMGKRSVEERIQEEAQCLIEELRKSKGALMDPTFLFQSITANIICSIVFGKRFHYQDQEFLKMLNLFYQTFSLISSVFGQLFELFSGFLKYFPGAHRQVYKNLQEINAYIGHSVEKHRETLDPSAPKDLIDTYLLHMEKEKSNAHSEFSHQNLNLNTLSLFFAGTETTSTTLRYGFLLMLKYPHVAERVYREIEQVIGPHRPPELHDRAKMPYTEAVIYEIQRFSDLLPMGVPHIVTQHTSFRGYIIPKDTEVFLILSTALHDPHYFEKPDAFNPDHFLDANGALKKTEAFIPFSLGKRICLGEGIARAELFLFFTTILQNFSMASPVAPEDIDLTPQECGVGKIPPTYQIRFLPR
RUN_DESCRIPTION: CYP isoforms inhibition
CONDITION_DETAILS: 5-dose, 3-fold dilution starting at 30 µM
QUANTITY: IC50

Find the measured IC50 of CC(C)n1c(C2CCNCC2)nc2c([N+](=O)[O-])c(Br)c(Br)cc21 and report it.
> 40 µM

###

RUN_DESCRIPTION: Pharmacokinetics after oral and intravenous administration
Type: in vivo, dogs (Beagle)
CONDITION_DETAILS: male, Beagle, plasma; Dog, Dose PO/IV 5/1 mg/kg
QUANTITY: half-life (h)
Please reply with the bare figure in h and do not write the unit itself.

Specify reported half-life for the molecule shown: CC(C)n1c(C2CCNCC2)nc2c([N+](=O)[O-])c(Br)c(Br)cc21 [SEL24-B489]
17.6

###

TARGET_SYSTEM: CYP2C9 (Homo sapiens)
Construct: Cambridge Bioscience Limited (ran the assay)
Sequence (P11712 whole entry): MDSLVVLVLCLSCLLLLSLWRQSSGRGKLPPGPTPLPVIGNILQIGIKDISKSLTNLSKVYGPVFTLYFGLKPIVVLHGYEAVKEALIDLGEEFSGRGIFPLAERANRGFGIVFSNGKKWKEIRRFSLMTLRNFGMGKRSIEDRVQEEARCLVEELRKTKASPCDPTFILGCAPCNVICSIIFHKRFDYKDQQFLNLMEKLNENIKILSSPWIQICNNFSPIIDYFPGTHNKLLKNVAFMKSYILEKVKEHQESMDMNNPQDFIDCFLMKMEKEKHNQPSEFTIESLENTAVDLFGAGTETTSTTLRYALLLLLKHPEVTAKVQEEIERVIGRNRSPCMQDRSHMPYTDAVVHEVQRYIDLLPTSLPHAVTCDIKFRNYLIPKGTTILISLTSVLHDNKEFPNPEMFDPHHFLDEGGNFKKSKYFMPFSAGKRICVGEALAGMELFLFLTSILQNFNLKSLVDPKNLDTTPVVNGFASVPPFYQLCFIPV
RUN_DESCRIPTION: CYP isoforms inhibition
CONDITION_DETAILS: 5-dose, 3-fold dilution starting at 30 µM
pIC50: −log10 of the molar value.
QUANTITY: pIC50

Annotate the compound CC(C)n1c(C2CCNCC2)nc2c([N+](=O)[O-])c(Br)c(Br)cc21 with its measured pIC50.
< 3.82

###

Tested on: KASUMI-3
RUN_DESCRIPTION: MTS viability assay, 72 h
CONDITION_DETAILS: read-out: LC50; KASUMI-3, 72 h; 50% death relative to T0
QUANTITY: CC50 (µM)
Give the number; µM is assumed, so skip it.

Answer briefly: CC50 recorded on KASUMI-3 for N[C@@H]1CCCN(c2c(/C=C3\SC(=O)NC3=O)cccc2-c2ccccc2)C1
4.63

###

TARGET_SYSTEM: PIM3 (Homo sapiens)
QUANTITY: Kd (nM)
# output: bare number, implied unit nM

Report measured Kd; entry is CC(C)n1c(C2CCNCC2)nc2c([N+](=O)[O-])c(Br)c(Br)cc21
3

###

RUN_DESCRIPTION: Metabolic stability, liver microsomes
Type: in vitro ADME
CONDITION_DETAILS: Human, 37 °C, read-out: Liver microsomes t1/2 (converted)
QUANTITY: half-life at 1 µM (h)
Use h as the unit, but write only the number.

Please give measured half-life at 1 µM of the following entry: CC(C)n1c(C2CCNCC2)nc2c([N+](=O)[O-])c(Br)c(Br)cc21 [SEL24-B489]
21.1

###

Tested on: S6 phosphorylation (Ser235/236) in MV-4-11 cells
RUN_DESCRIPTION: S6 phosphorylation, flow cytometry
Format: cell-based
CONDITION_DETAILS: Homo sapiens, MV4-11; MV-4-11, 4 hours
QUANTITY: IC50 (nM)
Give the number; nM is assumed, so skip it.

Tell us which IC50 value is on record for CC(C)n1c(C2CCNCC2)nc2c([N+](=O)[O-])c(Br)c(Br)cc21 [SEL24-B489]
13

###

RUN_DESCRIPTION: Pharmacokinetics after oral and intravenous administration
Type: in vivo, dogs (Beagle)
CONDITION_DETAILS: male, Beagle, plasma; Dog, Dose PO/IV 5/1 mg/kg
QUANTITY: AUC(0-t) (ng·h/mL)
Just the number please, in ng·h/mL, no unit attached.

Please give measured AUC(0-t) of the following entry: CC(C)n1c(C2CCNCC2)nc2c([N+](=O)[O-])c(Br)c(Br)cc21
3080
